Where these numbers come from: patent US6355799B1

System: upland rice (Oryza sp., var. Tebonnet, RICE)
Test: Pre-emerge test, crop safety
Type: in vivo
Settings: pre-emerge, 250 g ai/ha, 14 days after application, scale 0-100
Response field label takes T when phytotoxicity rating RICE (crop damage) is strictly below 50 and F in all other cases.

A record lists COc1c(C#N)cc(F)c(-n2c(=O)cc(C(F)(F)F)n(C)c2=O)c1NC(=O)c1ccc2ccccc2c1 [2-181] . Is its phytotoxicity rating RICE (crop damage) below 50?
F

Say whether its phytotoxicity rating RICE (crop damage) is strictly beneath 50. Entry: COc1c(Cl)cc(F)c(-n2c(=O)cc(C(F)(F)F)n(C)c2=O)c1NC(=O)CCc1cc(C)ccc1C [2-130]
T

# check: phytotoxicity rating RICE (crop damage) < 50 for COc1c(Cl)cc(F)c(-n2c(=O)cc(C(F)(F)F)n(C)c2=O)c1NC(=O)CCc1ccccc1C [2-129]
F

Here's an entry: COc1c(Cl)cc(F)c(-n2c(=O)cc(C(F)(F)F)n(N)c2=O)c1NC(=O)COCc1ccccc1 [2-187] . Is its phytotoxicity rating RICE (crop damage) below 50?
F

Confirm or reject: phytotoxicity rating RICE (crop damage) of CCOC(=O)CSCC(=O)Nc1c(OC)c(Cl)cc(F)c1-n1c(=O)cc(C(F)(F)F)n(C)c1=O [2-170] lies strictly below 50
T

Is it true that phytotoxicity rating RICE (crop damage) reported for COc1c(Cl)cc(F)c(-n2c(=O)cc(C(F)(F)F)n(C)c2=O)c1NC(=O)c1cc2ccccc2cc1C [2-157] is less than 50?
F

# check: phytotoxicity rating RICE (crop damage) < 50 for COc1c(Cl)cc(F)c(-n2c(=O)cc(C(F)(F)F)n(N)c2=O)c1NC(=O)c1ccc2ccccc2c1 [2-184]
F

State whether 50 exceeds phytotoxicity rating RICE (crop damage) recorded for COc1ccc(-n2c(=O)cc(C(F)(F)F)n(C)c2=O)c(NC(=O)c2ccc3ccccc3c2)c1 [2-143] .
F

Does the reported phytotoxicity rating RICE (crop damage) of COc1c(Br)cc(F)c(-n2c(=O)cc(C(F)(F)F)n(C)c2=O)c1N(C(=O)C=Cc1ccccc1)C(=O)C=Cc1ccccc1 [2-178] stay below 50?
T

Does CCOC(=O)C(C)SCC(=O)Nc1c(OC)c(Cl)cc(F)c1-n1c(=O)cc(C(F)(F)F)n(C)c1=O (stereo not drawn) [2-171] have phytotoxicity rating RICE (crop damage) strictly under 50?
T

phytotoxicity rating RICE (crop damage) under 50? Item: COc1c(Cl)cc(F)c(-n2c(=O)cc(C(F)(F)F)n(C)c2=O)c1NC(=O)CCc1cc(C)ccc1C [2-132]
T

Is it true that phytotoxicity rating RICE (crop damage) reported for COc1c(Cl)cc(F)c(-n2c(=O)cc(C(F)(F)F)n(C)c2=O)c1NC(=O)c1ccc2c(C#N)cccc2c1 [2-163] is less than 50?
T

Here's an entry: COc1c(Cl)cc(F)c(-n2c(=O)cc(C(F)(F)F)n(C)c2=O)c1NC(=O)C=Cc1cccc(Cl)c1 [2-134] . Is its phytotoxicity rating RICE (crop damage) below 50?
T

Problem: For the compound COc1c(Cl)cc(F)c(-n2c(=O)cc(C(F)(F)F)n(C)c2=O)c1NC(=O)Cc1ccccc1 [2-151] , is phytotoxicity rating RICE (crop damage) under 50?
T

For COc1c(Cl)cc(Cl)c(-n2c(=O)cc(C(F)(F)F)n(C)c2=O)c1NC(=O)c1ccc2ccccc2c1 [2-144] , is the recorded phytotoxicity rating RICE (crop damage) below the cut-off of 50?
T

Consider the compound COc1c(Br)cc(F)c(-n2c(=O)cc(C(F)(F)F)n(C)c2=O)c1N(C(=O)C=Cc1ccccc1)C(=O)C=Cc1ccccc1 [2-176] . Is its phytotoxicity rating RICE (crop damage) strictly less than 50?
T

Please determine if Cn1c(C(F)(F)F)cc(=O)n(-c2c(F)cc(Cl)cc2NC2CC2)c1=O [2-147] is below 50 in terms of phytotoxicity rating RICE (crop damage).
F

Hello, I'm reviewing records and need to know if phytotoxicity rating RICE (crop damage) of CCOC(=O)C(C)Oc1ccc(-n2c(=O)cc(C(F)(F)F)n(C)c2=O)c(NC(=O)c2ccc3ccccc3c2)c1 (stereo not drawn) [2-146] is below 50. Could you check?
T

Does COc1c(Br)cc(F)c(-n2c(=O)cc(C(F)(F)F)n(C)c2=O)c1NC(=O)C=Cc1ccccc1 [2-175] have phytotoxicity rating RICE (crop damage) strictly under 50?
T

Please check: phytotoxicity rating RICE (crop damage) for C=Cc1ccc(C(=O)N(C(=O)c2ccc(C=C)cc2)c2c(OC)c(Br)cc(F)c2-n2c(=O)cc(C(F)(F)F)n(C)c2=O)cc1 [2-183] , strictly under 50 or not?
T

Say whether its phytotoxicity rating RICE (crop damage) is strictly beneath 50. Entry: COc1c(Cl)cc(F)c(-n2c(=O)cc(C(F)(F)F)n(C)c2=O)c1NC(=O)CSC [2-168]
F

Would you kindly verify if phytotoxicity rating RICE (crop damage) of Cn1c(C(F)(F)F)cc(=O)n(-c2ccccc2NC(=O)c2ccc3ccccc3c2)c1=O [2-142] is strictly less than 50?
T

Given the entry COc1c(Cl)cc(F)c(-n2c(=O)cc(C(F)(F)F)n(C)c2=O)c1NC(=O)C=Cc1ccccc1[N+](=O)[O-] [2-126] , would its reported phytotoxicity rating RICE (crop damage) be below 50?
F

Determine whether this compound shows phytotoxicity rating RICE (crop damage) lower than 50 (ties excluded): COc1c(Cl)cc(F)c(-n2c(=O)cc(C(F)(F)F)n(C)c2=O)c1NC(=O)COc1ccc(Cl)cc1Cl [2-154]
F

----------
System: johnsongrass (Sorghum halepense, SORHA)
Test: Pre-emerge test, greenhouse herbicide activity screening
Format: in vivo
Details: 250 g ai/ha; rated 14 days after application; 0 = no damage, 100 = complete death
METRIC: Pre-emerge Herbicidal Activity, phytotoxicity rating (0-100), SORHA
Provide a numeric answer; units are not to be included.

For the compound COc1c(Cl)cc(F)c(-n2c(=O)cc(C(F)(F)F)n(C)c2=O)c1N(C(=O)c1ccc(F)c(F)c1)C(=O)c1ccc(F)c(F)c1 [2-49] , the measured Pre-emerge Herbicidal Activity, phytotoxicity rating (0-100), SORHA on johnsongrass (Sorghum halepense, SORHA) was 0

Record COc1c(Cl)cc(F)c(-n2c(=O)cc(C(F)(F)F)n(C)c2=O)c1NC(=O)c1ccc(Br)cc1 [2-61] ; system johnsongrass (Sorghum halepense, SORHA); Pre-emerge Herbicidal Activity, phytotoxicity rating (0-100), SORHA = 100

GET /values?item= COc1c(Cl)cc(F)c(-n2c(=O)cc(C(F)(F)F)n(C)c2=O)c1N(C(=O)c1ccc(Cl)nc1)C(=O)c1ccc(Cl)nc1 [2-100] &system= johnsongrass (Sorghum halepense, SORHA) returns Pre-emerge Herbicidal Activity, phytotoxicity rating (0-100), SORHA: 100

Reported johnsongrass (Sorghum halepense, SORHA) Pre-emerge Herbicidal Activity, phytotoxicity rating (0-100), SORHA for item COc1c(Cl)cc(F)c(-n2c(=O)cc(C(F)(F)F)n(C)c2=O)c1NC(=O)c1ccc(C#N)cc1 [2-67] was 100

The reported Pre-emerge Herbicidal Activity, phytotoxicity rating (0-100), SORHA value, johnsongrass (Sorghum halepense, SORHA), for COc1c(Cl)cc(F)c(-n2c(=O)cc(C(F)(F)F)n(C)c2=O)c1NC(=O)c1ccc(Cl)c(Cl)c1 [2-59] reads 90

----------
System: upland rice (Oryza sp., var. Tebonnet, RICE)
Test: Post-emerge test, crop safety
Type: in vivo
Details: post-emerge, 63 g ai/ha, 14 days after application, rating scale 0-100
METRIC: RICE phytotoxicity rating (crop damage)
Lab note: jot the number down without any unit.

// RICE phytotoxicity rating (crop damage) (upland rice (Oryza sp., var. Tebonnet, RICE)) for COc1c(Cl)cc(F)c(-n2c(=O)cc(C(F)(F)F)n(C)c2=O)c1NC(=O)CCc1cc(C)ccc1C [2-130] = 20

// assay upland rice (Oryza sp., var. Tebonnet, RICE), entry COc1c(Br)cc(F)c(-n2c(=O)cc(C(F)(F)F)n(C)c2=O)c1N(C(=O)C=Cc1ccccc1)C(=O)C=Cc1ccccc1 [2-178] , RICE phytotoxicity rating (crop damage) value = 0

GET /values?item= Cn1c(C(F)(F)F)cc(=O)n(-c2ccc(C(F)(F)F)cc2NC(=O)c2ccc3ccccc3c2)c1=O [2-149] &system= upland rice (Oryza sp., var. Tebonnet, RICE) returns RICE phytotoxicity rating (crop damage): 0

Entry Cn1c(C(F)(F)F)cc(=O)n(-c2ccccc2NC(=O)c2ccc3ccccc3c2)c1=O [2-142] under upland rice (Oryza sp., var. Tebonnet, RICE) had RICE phytotoxicity rating (crop damage) of 10

Field RICE phytotoxicity rating (crop damage) (system: upland rice (Oryza sp., var. Tebonnet, RICE)) for entry COc1c(C#N)cc(F)c(-n2c(=O)cc(C(F)(F)F)n(C)c2=O)c1NC(=O)c1ccc2ccccc2c1 [2-181] = 15

Bench note, upland rice (Oryza sp., var. Tebonnet, RICE): entry COc1c(Cl)cc(F)c(-n2c(=O)cc(C(F)(F)F)n(C)c2=O)c1NC(=O)c1ccc2cccc(F)c2c1 [2-161] , its RICE phytotoxicity rating (crop damage) = 20

The compound CCOC(=O)CSCC(=O)Nc1c(OC)c(Cl)cc(F)c1-n1c(=O)cc(C(F)(F)F)n(C)c1=O [2-170] , when measured on upland rice (Oryza sp., var. Tebonnet, RICE), yielded RICE phytotoxicity rating (crop damage) of 5

Entry N#CCOc1c(Cl)cc(F)c(-n2c(=O)cc(C(F)(F)F)n(N)c2=O)c1NC(=O)c1ccc2ccccc2c1 [2-188] : RICE phytotoxicity rating (crop damage) on upland rice (Oryza sp., var. Tebonnet, RICE) = 20

Tested on upland rice (Oryza sp., var. Tebonnet, RICE): CCSCC(=O)Nc1c(OC)c(Cl)cc(F)c1-n1c(=O)cc(C(F)(F)F)n(C)c1=O [2-172] . Observed RICE phytotoxicity rating (crop damage): 0

Record for C=Cc1ccc(C(=O)N(C(=O)c2ccc(C=C)cc2)c2c(OC)c(Br)cc(F)c2-n2c(=O)cc(C(F)(F)F)n(C)c2=O)cc1 [2-183] under target or system upland rice (Oryza sp., var. Tebonnet, RICE): RICE phytotoxicity rating (crop damage) reported as 0

The observed RICE phytotoxicity rating (crop damage) for COc1c(Cl)cc(F)c(-n2c(=O)cc(C(F)(F)F)n(C)c2=O)c1NC(=O)Cc1ccccc1 [2-151] when tested with upland rice (Oryza sp., var. Tebonnet, RICE) stands at 0

Hey, upland rice (Oryza sp., var. Tebonnet, RICE) data for COc1c(Br)cc(F)c(-n2c(=O)cc(C(F)(F)F)n(C)c2=O)c1NC(=O)C=Cc1ccccc1 [2-177] : RICE phytotoxicity rating (crop damage) came out at 50

# lookup: COc1c(C#N)cc(F)c(-n2c(=O)cc(C(F)(F)F)n(C)c2=O)c1NC(=O)C=Cc1ccccc1 [2-179] on upland rice (Oryza sp., var. Tebonnet, RICE), RICE phytotoxicity rating (crop damage) = 30
